Target: full-length human PRMT1 isoform 1 (GST-tagged) (Homo sapiens)
Sequence (Q99873 with tags, fused parts or gaps): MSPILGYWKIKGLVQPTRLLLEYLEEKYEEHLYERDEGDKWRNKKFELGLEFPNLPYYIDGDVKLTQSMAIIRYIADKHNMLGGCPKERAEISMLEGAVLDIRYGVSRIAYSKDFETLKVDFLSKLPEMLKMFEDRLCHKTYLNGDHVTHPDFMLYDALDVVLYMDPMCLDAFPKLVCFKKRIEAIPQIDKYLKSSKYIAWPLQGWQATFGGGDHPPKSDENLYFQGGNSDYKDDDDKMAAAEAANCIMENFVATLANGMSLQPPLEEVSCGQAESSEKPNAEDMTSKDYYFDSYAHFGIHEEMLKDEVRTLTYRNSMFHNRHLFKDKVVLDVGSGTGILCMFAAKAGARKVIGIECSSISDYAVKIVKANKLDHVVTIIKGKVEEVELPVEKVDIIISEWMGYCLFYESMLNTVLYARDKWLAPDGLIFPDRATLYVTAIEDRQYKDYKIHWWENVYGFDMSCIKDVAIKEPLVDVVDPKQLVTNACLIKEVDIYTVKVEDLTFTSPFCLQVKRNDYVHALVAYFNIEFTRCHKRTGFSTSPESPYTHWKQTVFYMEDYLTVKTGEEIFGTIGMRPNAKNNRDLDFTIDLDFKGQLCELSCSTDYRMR
Assay: PRMT1 Biochemical Assay (3H-SAM Flashplate, peptide substrate)
Measured IC50 values are reported for all entries that follow.

Exercise: Form field: reported IC50 of CNCCN(C)Cc1c[nH]nc1C1CC(OCC(C)C)CC(OCC(C)C)C1 (stereo not drawn) [Compound 122]
Key: 101 to 1000 nM

Exercise: Reported IC50, compound CNCCN(C)Cc1c[nH]nc1C1CCC2(CC1)CC2 [Compound 144] : ____
Key: < 100 nM

====

Molecular target: full-length human PRMT8 isoform 1 (Homo sapiens, UniProt Q9NR22)
Sequence (Q9NR22 whole entry, canonical isoform): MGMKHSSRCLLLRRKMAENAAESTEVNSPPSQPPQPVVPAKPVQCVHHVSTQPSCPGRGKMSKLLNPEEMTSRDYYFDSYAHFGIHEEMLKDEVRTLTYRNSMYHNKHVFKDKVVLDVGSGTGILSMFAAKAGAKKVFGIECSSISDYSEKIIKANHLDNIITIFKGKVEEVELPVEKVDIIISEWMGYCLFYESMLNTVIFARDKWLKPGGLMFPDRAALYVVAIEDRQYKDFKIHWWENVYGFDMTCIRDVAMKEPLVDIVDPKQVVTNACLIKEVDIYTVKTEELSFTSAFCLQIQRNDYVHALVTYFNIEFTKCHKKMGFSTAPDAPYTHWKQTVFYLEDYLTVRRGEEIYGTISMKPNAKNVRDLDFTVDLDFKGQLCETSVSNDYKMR
Experiment: PRMT8 Biochemical Assay (3H-SAM Flashplate, peptide substrate)
Conditions: read-out: Biochemical IC50 PRMT8
pIC50: −log10 of the molar value.
measuredQuantity: pIC50

Some compounds with recorded pIC50:
CNCCN(C)Cc1c[nH]nc1[C@H]1CC[C@H](N(CC(C)C)C(=O)CCOc2ccccc2)CC1	> 7.00
CNCCN(C)Cc1c[nH]nc1C1CCC(C)(C)C(O)C1 (stereo not shown)	> 7.00
CNCCN(C)Cc1c[nH]nc1[C@H]1CC[C@]2(CCCO2)OC1	5.00 to 5.52

Exercise: Recorded pIC50 for CNCCN(C)Cc1c[nH]nc1[C@H]1CC[C@@H](N(CCC(C)C)C(=O)CCOC)CC1 , please?
Key: > 7.00

====

Molecular target: full-length human PRMT1 isoform 1 (GST-tagged) (Homo sapiens)
Assay: PRMT1 Biochemical Assay (3H-SAM Flashplate, peptide substrate)
Conditions: single experiment or average of multiple experiments
measuredQuantity: pIC50
Lab note: report pIC50 as minus log10 of the concentration in molar units, number only.

Exercise: Look up pIC50 for this compound: CNCCN(C)Cc1cn(C)nc1C1CCC2(CCCC2)CC1 [Compound 47]
Key: 8.37

Exercise: Give its pIC50 value. Item: CNCCN(C)Cc1c[nH]nc1C1CCC2(CC1)CN(C)C(=O)N2C (centres unmarked) [Compound 172]
Key: 7.64

Exercise: Given CCCOC1CC(OCCC)CC(c2n[nH]cc2CN(C)CCNC)C1 (centres unmarked) [Compound 131] , state its recorded pIC50.
Key: 6.57

Exercise: # get_value(readout='pIC50', item= CC(C)c1n[nH]cc1CN(C)CCN [Compound 21] )
Key: 5.83

Exercise: # get_value(readout='pIC50', item= CNCCN(C)Cc1c[nH]nc1C1CCC(CC(C)C)CC1 (centres unmarked) [Compound 169] )
Key: 8.19

====

Molecular target: full-length human PRMT6 (Flag- and His-tagged) (Homo sapiens)
Sequence (Q96LA8 with tags, fused parts or gaps): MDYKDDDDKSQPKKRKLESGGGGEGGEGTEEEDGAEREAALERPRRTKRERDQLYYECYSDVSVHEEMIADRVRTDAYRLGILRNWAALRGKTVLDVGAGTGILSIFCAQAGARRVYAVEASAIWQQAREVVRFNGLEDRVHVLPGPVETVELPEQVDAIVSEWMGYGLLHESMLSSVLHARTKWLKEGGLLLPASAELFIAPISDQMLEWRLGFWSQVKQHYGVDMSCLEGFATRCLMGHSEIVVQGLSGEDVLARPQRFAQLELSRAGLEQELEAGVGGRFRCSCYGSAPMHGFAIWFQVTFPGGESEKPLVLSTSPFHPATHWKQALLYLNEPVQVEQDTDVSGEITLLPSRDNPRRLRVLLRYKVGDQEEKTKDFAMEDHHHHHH
Assay: PRMT6 Biochemical Assay (3H-SAM Flashplate, peptide substrate)
Conditions: read-out: Biochemical IC50 PRMT6
measuredQuantity: IC50

CNCCN(C)Cc1c[nH]nc1[C@H]1CC[C@@H](N(CC2CCOCC2)C(=O)CC(C)C)CC1	101 to 1000 nM

Exercise: // returns reported IC50 for input CCN(C(=O)CCOc1ccccc1)[C@H]1CC[C@@H](c2n[nH]cc2CN(C)CCNC)CC1
Key: < 100 nM

Exercise: Record request: IC50 value, item CNCCN(C)Cc1c[nH]nc1[C@H]1CC[C@@H](COC)CC1
Key: < 100 nM

Exercise: Name the reported IC50 value associated with the compound CNCCN(C)Cc1c[nH]nc1[C@H]1CC[C@@H](C(C)C)CC1
Key: < 100 nM
